- STUDY_TARGET: NADPH oxidase 2 (Homo sapiens)
- PROCEDURE_TEXT: NOX2-dependent H2O2 signal modulators, primary screen, NOX inhibitor project, cell-based, HEK293-NOX2, PMA-stimulated, Amplex Red fluorescence (AID 1159); note: test concentration not given here
- EXPERIMENTAL_CONDITIONS: 45 min, higher = more signal, called active from +8 up or from −8 down
Classification field: MET = z-score at or over 0.2; NOT MET = z-score under 0.2.

[ask] Given the entry CC(C)NC(=O)[C@@]1(c2ccc([N+](=O)[O-])cc2)CC(=O)N(CC23CC4CC(CC(C4)C2)C3)[C@@H]1c1ccc(CO)cc1I , answer whether its z-score meets or surpasses 0.2.
[reply] MET

[ask] Hello, I need to know if C[C@@H]1CCC2C(=O)N(Cc3ccccc3)C[C@@H](O)CN2[C@H]1c1ccc(Br)cc1 (some centres not stated) has measured z-score not below 0.2. Thanks!
[reply] MET

[ask] Identify whether the reported z-score of the following compound is 0.2 or greater: C#CCCCON=C1C[C@@H](O)[C@@H](O)[C@@H]2[C@@H]3C(=O)N(Cc4ccccc4)C(=O)[C@@H]3CC[C@H]12
[reply] NOT MET

[ask] Confirm if z-score reported for the compound CCN1C(=O)[C@H]2[C@H]3[C@H](O)[C@H](O)CC(=NOC(C)CN4CCCCc5nc(C)c(C)cc54)[C@@H]3CC[C@H]2C1=O (some centres not stated) is 0.2 or above.
[reply] NOT MET

[ask] Say whether O[C@@H](Cc1ccccc1)[C@H]1C2C=CCCC(c3ccccc3)=C2CN1Cc1cccc(Cl)c1 (some centres not stated) shows z-score of 0.2 or more.
[reply] NOT MET

[ask] For this compound, is measured z-score 0.2 or higher? COCCOC(=O)N1C(=O)[C@@]2(c3cc(C#Cc4ccc(OC)cc4)ccc31)[C@H](C(=O)N1CCN(c3ncccn3)CC1)[C@H]1C(=O)O[C@H](c3ccccc3)[C@H](c3ccccc3)N1[C@@H]2c1ccc(OCCO)cc1
[reply] MET

[ask] Evaluate C[C@@H](c1ccccc1)N1C(=O)[C@H]2[C@H]3[C@H](O)[C@H](O)CC(=NNC(=O)OCc4ccccc4)[C@H]3CC[C@H]2C1=O : z-score at minimum 0.2?
[reply] MET

###

- PROCEDURE_TEXT: E. coli acrAB mutant growth effects, primary screen, E. coli filamentation inducers, strain DRC39, OD650, 48 h (AID 1179);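 note: screen aims at cell division blockers that make cells filament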
- EXPERIMENTAL_CONDITIONS: E. coli DRC39 delta-acrAB growth, higher = more signal, called active from +8 up or from −8 down
REPORTED_PROPERTY: z-score
Give only the figure.

[ask] Using the record for CCN1C(=O)[C@H]2[C@H]3[C@H](O)[C@H](O)CC(=NOCc4ccccc4)[C@@H]3CC[C@H]2C1=O , report its z-score.
[reply] -0.353

[ask] Given the molecule COCCCNC(=O)[C@@]1(Sc2ccc(C)cc2)CC(=O)N(Cc2ccccc2)[C@@H]1c1ccc(CO)cc1I , what is its reported z-score?
[reply] 0.264

[ask] Name the recorded z-score for CN(C)c1ccc(C(O)C2C=CC3C(=O)N(c4ccccc4)C(=O)C3N2Nc2ccccc2F)cc1 (centres undefined) .
[reply] -1.08

[ask] GET /values?readout=z-score&item= O=C1[C@H]2[C@H]3[C@H](O)[C@H](O)CC(=NOC[C@@H](O)COCc4ccco4)[C@@H]3CC[C@H]2C(=O)N1c1ccc(F)cc1F
[reply] 0.264

###

- STUDY_TARGET: NADPH oxidase 4 (Homo sapiens) (UniProt Q9NPH5)
- Sequence (Q9NPH5 whole entry, looked up): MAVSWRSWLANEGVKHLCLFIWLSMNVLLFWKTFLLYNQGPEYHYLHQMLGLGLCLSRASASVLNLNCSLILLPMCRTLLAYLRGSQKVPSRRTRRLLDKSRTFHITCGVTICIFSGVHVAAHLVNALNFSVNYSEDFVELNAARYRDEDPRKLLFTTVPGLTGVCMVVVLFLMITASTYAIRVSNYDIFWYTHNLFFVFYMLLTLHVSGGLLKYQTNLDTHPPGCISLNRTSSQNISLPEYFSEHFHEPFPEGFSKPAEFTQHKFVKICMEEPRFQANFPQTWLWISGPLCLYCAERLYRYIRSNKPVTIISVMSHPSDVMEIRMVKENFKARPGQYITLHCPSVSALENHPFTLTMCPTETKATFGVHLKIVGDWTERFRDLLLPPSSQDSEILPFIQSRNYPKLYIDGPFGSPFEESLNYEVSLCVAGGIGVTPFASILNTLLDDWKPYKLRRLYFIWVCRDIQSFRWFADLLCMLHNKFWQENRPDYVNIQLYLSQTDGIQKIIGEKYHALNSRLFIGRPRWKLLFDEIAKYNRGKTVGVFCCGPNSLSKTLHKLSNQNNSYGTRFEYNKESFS
- PROCEDURE_TEXT: NOX4-dependent H2O2 signal modulators, primary screen, NOX inhibitor project, cell-based, HEK293-NOX4, tetracycline-induced, Amplex Red fluorescence (AID 1160)
- EXPERIMENTAL_CONDITIONS: 45 min, higher = more signal, called active from +8 up or from −8 down
REPORTED_PROPERTY: z-score
Form field (numeric): enter value without unit.

[ask] What does the record list as z-score for O=C(NN=C1C[C@@H](O)[C@@H](O)[C@@H]2[C@@H]3C(=O)N(c4cccc(Oc5ccccc5)c4)C(=O)[C@@H]3CC[C@H]12)OCc1ccccc1 ?
[reply] 0.056

[ask] Entry CC(C)=CCCC(C)=CCON=C1[C@H]2CCn3c(=O)n(C)c(=O)n3[C@H]2[C@H](O)[C@@H]2O[C@H]12 has what z-score?
[reply] 0.0699

[ask] Returns the measured z-score for the input compound. Input: CC(=O)OC[C@H]1O[C@H](CCON=C(C)CCC(=O)OC[C@H]2O[C@H](C#Cc3ccccc3)C=C[C@@H]2Oc2ccc(C)cc2)C=C[C@@H]1OC(C)=O
[reply] 0.384

[ask] Could you share which z-score value was measured for CCc1cc2c(nc1CC)CCN(CCC(C)=NOC(C)CN1CCCc3nc(C)c(C)cc31)C2 (centres undefined) ?
[reply] -0.293

###

- PROCEDURE_TEXT: P. aeruginosa biofilm formation inhibitors, primary screen, strain PAO1, LB-PBS medium, absorbance 600 nm (AID 1176); note: test concentration not given here
- EXPERIMENTAL_CONDITIONS: P. aeruginosa PAO1 growth/biofilm, A600, 12 h; higher = more signal
REPORTED_PROPERTY: z-score
Give the value as a plain number.

[ask] Tell me the measured z-score of CCCNC(=O)OC[C@H]1O[C@H](CCON=C[C@@H](OC)[C@H](C)C=CCC(=O)OC)C=C[C@@H]1Oc1ccc(OC)cc1 , please.
[reply] -0.537

[ask] Which z-score is reported for this compound? NC(=O)NCC#Cc1ccc2c(c1)[C@]1(C(=O)N2)[C@H](c2ccc(O)cc2)N2[C@H](c3ccccc3)[C@H](c3ccccc3)OC(=O)[C@H]2[C@@H]1C(=O)N1CCCCCCC1
[reply] 1.1

[ask] # z-score lookup, item COCC1=C2[C@@H](CCc3ccccc3)OB(O)C[C@@H]2n2c(=O)n(-c3ccccc3)c(=O)n2C1
[reply] 0.248

[ask] Looking for the measured z-score of O=C1C2=CC[C@H]3C(=O)N(Cc4ccc5c(c4)OCO5)C(=O)[C@H]3[C@H]2[C@H](O)[C@@H]2O[C@H]12 , can you help?
[reply] 0.0578

###

Would you kindly list composite z-score for each of these compounds?
- Test system: Sonic hedgehog protein (Shh)
- PROCEDURE_TEXT: small-molecule binders of Shh protein, primary screen, biochemical, small-molecule microarray, 635/667 nm fluorescence (AID 1151);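 note: Shh protein binding to compounds spotted on small-molecule microarray slides; score combines spot fluorescence intensity with signal-to-noise across triplicate slides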
- EXPERIMENTAL_CONDITIONS: small-molecule microarray binding, 635 nm fluorescence; higher = more signal
Give a plain numeric answer without units written out.

[ask] Fill in the blank: the reported composite z-score of CCOC(=O)C[C@H]1[C@H](OC(=O)c2cc3ccccc3oc2=O)[C@@H](NC(=O)c2ccc3ccccc3n2)c2cc(OCCCO)ccc2N1C(=O)c1ccccc1 is ____.
[reply] 0.574

[ask] Quick one: composite z-score of CC(C)CN1CCc2nc(-c3ccccc3)c3c(c2CC1)CO[C@@H](C)C3 ?
[reply] 1.53

[ask] Fill blank: measured composite z-score of the compound COCCOC(=O)N1C(=O)[C@@]2(c3cc(C#CC4(O)CCCCCC4)ccc31)[C@H](c1ccc(OCCO)cc1)N1[C@H](c3ccccc3)[C@H](c3ccccc3)OC(=O)[C@H]1[C@@H]2C(=O)NC[C@H](O)c1ccccc1 is ____.
[reply] 1.23

[ask] Entry CC(C)[C@@H](OCc1ccccc1)[C@H](C)C=NOC[C@@H](C)[C@H](OCc1ccccc1)C(C)C has what composite z-score?
[reply] 0.256

[ask] Report composite z-score for CC(C)CON=C1C[C@@H](O)[C@@H](O)[C@@H]2[C@@H]3C(=O)N(C[C@@H]4CCCO4)C(=O)[C@@H]3CC[C@H]12 please.
[reply] 0.819

[ask] Entry COCCOC(=O)N1C(=O)[C@@]2(c3cc(C#Cc4ccc(OC)cc4)ccc31)[C@H](C(=O)N1CCN(c3ncccn3)CC1)[C@H]1C(=O)O[C@H](c3ccccc3)[C@H](c3ccccc3)N1[C@@H]2c1ccc(OCCO)cc1 : reported composite z-score = ?
[reply] 1

###

Please provide measured z-score for the entries that follow.
- PROCEDURE_TEXT: HepG2 liver cancer cell viability effects, profiling panel, resazurin fluorescence, 24 h, PK04 Diversity Set (AID 1172); note: test concentration not given here
- EXPERIMENTAL_CONDITIONS: higher = more signal
Answer using only a numeral; do not append any unit.

[ask] Query: z-score; subject: CCOC(=O)NN=C1C[C@@H](O)[C@@H](O)[C@@H]2[C@@H]3C(=O)N(C4CCCCC4)C(=O)[C@@H]3CC[C@H]12
[reply] -0.912

[ask] Given CCOC(=O)CCN1C(=O)[C@H]2[C@H]3[C@H](O)[C@H](O)CC(=NOC[C@@H](O)COCc4ccco4)[C@@H]3CC[C@H]2C1=O , state its recorded z-score.
[reply] -0.454

[ask] Look up z-score for this molecule: C=CC[C@@H]1C=C[C@H](ON=Cc2ccc(C(=O)N3[C@H](c4ccc(C)cc4)[C@@H](C)CC[C@H]3C(=O)OC)cc2)[C@@H](CO)O1
[reply] 0.456

[ask] Need z-score of CC1CC/C=C\[C@H]2OC34C=CCN(C(C)C)C(=O)[C@H]3N(CCCO)C(=O)[C@@H]4C2C(=O)O1 (some centres undefined) , thanks.
[reply] 0.49

[ask] Give its z-score value. Item: CC(C)NC(=O)[C@@]1(c2ccc([N+](=O)[O-])cc2)CC(=O)N(CC23CC4CC(CC(C4)C2)C3)[C@@H]1c1ccc(CO)cc1I
[reply] -3.37

[ask] Reported z-score for CC(=O)O[C@H]1C2=C(C(=O)[C@@H]3O[C@@H]31)[C@H]1C(C)O[C@@H]2[C@@]23C(=O)[C@@H]4O[C@@H]4[C@@H](O)C2=CO[C@H](C)[C@@H]13 (some centres undefined) : what is it?
[reply] 0.0072

[ask] Quick check: z-score of CCN1C(=O)[C@H]2[C@H]3[C@H](O)[C@H](O)CC(=NOCc4ccccc4)[C@H]3CC[C@H]2C1=O ?
[reply] -0.322

[ask] Look at this molecule and give its reported z-score. CC(CCN1CCc2nc(-c3ccccc3)c(-c3ccccc3)cc2C1)=NO[C@@H](C)c1cn([C@H](CO)Cc2ccccc2)nn1
[reply] -1.41

[ask] Report z-score for CC(=O)OC[C@H]1O[C@H](CCON=C(C)CCN2CCc3nc(-c4ccccc4)c(-c4ccccc4)cc3C2)C=C[C@@H]1OC(C)=O please.
[reply] 0.0962

[ask] I would be grateful if you could share the reported z-score for C=C(CCCC)C(=O)CC[C@@H](OC(C)=O)c1cccc(OCCO)c1 .
[reply] -0.749

[ask] Need z-score of CC1CC/C=C\[C@H]2OC34C=CCN(Cn5nnc6ccccc65)C(=O)[C@H]3N(CCO)C(=O)[C@@H]4C2C(=O)O1 (some centres undefined) , thanks.
[reply] 0.831

[ask] Item under review: O=C1CCCC2OC12C(O)CCc1ccccc1 (centres undefined) . Reported z-score?
[reply] -1.06

[ask] Query: z-score; subject: C[C@H]1Cc2c(-c3ccccc3)nc3c(c2CO1)CN(CCOc1ccccc1)CC3
[reply] -0.33

[ask] State the recorded z-score for this entry: CC(CCC(=O)OC[C@H]1O[C@H](C#Cc2ccccc2)C=C[C@@H]1Oc1ccc(C)cc1)=NO[C@@H](C)c1cn([C@H](CO)Cc2ccccc2)nn1
[reply] 0.0474

[ask] z-score lookup needed for COC(=O)[C@H](C)NC(=O)CCC1CC(OC(=O)NCc2cccc3ccccc23)CC2(CCCC(COC(=O)NCCc3ccc(Cl)cc3)O2)O1 (some centres undefined) , thanks.
[reply] 0.788

[ask] Endpoint output: z-score of CO[C@H]1COC(=O)[C@H](C)COC(=O)CC=C[C@@H](C)[C@H](OC)COC(=O)CC=C[C@@H]1C . Value?
[reply] -0.194

[ask] Can you look up the measured z-score of CCCC=C(CCC)[C@@H](NC(=O)c1ccc(-c2ccccc2)cc1)c1ccc(C(=O)OC)cc1 for me?
[reply] 0.664

[ask] # query: z-score of entry CC[C@@H](c1ccccc1)n1c(=O)n2n(c1=O)[C@H]1[C@H](O)[C@@H]3O[C@@H]3C(=NOCC(C)C)[C@H]1CC2
[reply] -0.0871

[ask] Look at this molecule and give its reported z-score. CCOC(=O)NN=C1C[C@@H](O)[C@@H](O)[C@@H]2[C@@H]3C(=O)N(CC)C(=O)[C@@H]3CC[C@@H]12
[reply] -0.0886

[ask] For the molecule C=CCOC(=O)[C@H]1[C@@H]2C(=O)O[C@@H](c3ccccc3)[C@@H](c3ccccc3)N2[C@@H](c2ccc(OCCOC(=O)[C@H]3C[C@H]4C(=O)N5CCC[C@H]5C(=O)N4[C@H]3c3cccc(OCCO)c3)cc2)[C@]12C(=O)Nc1ccc(I)cc12 , what z-score is on record?
[reply] 0.187

[ask] Report z-score for CC(C)=CCCC(C)=CCON=C1[C@H]2CCn3c(=O)n(C)c(=O)n3[C@H]2[C@H](O)[C@@H]2O[C@H]12 please.
[reply] -0.653

[ask] // lookup z-score for CN1C(=O)[C@@]2(CCC(=O)OC(C)(C)C)N=C(c3ccc(OCCCO)cc3)O[C@H]2c2ccccc21
[reply] 0.761

[ask] Would you mind telling me what z-score value was observed for CO[C@@H]1COC(=O)CC=C[C@@H](C)[C@@H]2C=C[C@H](O)[C@@H](COC(=O)[C@H](C)NC(=O)CC=C[C@H]1C)O2 ?
[reply] 0.592

[ask] Which z-score is listed for CCOC(=O)CCN1C(=O)[C@H]2[C@H]3[C@H](O)[C@H](O)CC(=NOC[C@@H](O)COCc4ccco4)[C@H]3CC[C@H]2C1=O ?
[reply] -0.749

[ask] What does the record list as z-score for CC(C)NC(=O)[C@@]1(C)c2ccccc2C(=O)N(Cc2cc(F)cc(C(F)(F)F)c2)[C@H]1c1ccc(CO)cc1 ?
[reply] -0.0499

[ask] Record request: z-score value, item CCCC[C@@H](O)C1=C(C)C[C@H]2C(=O)N(Cc3ccccc3)C(=O)[C@H]2[C@H]1CO
[reply] -0.31

[ask] // query z-score value for entry CC(C)c1ccc(NN2C(C(O)c3ccc4c(c3)OCO4)C=CC3C(=O)N(c4ccccc4)C(=O)C32)cc1 (centres undefined)
[reply] -1.13

[ask] Returns the measured z-score for the input molecule. Input: COCCCNC(=O)[C@@]1(CCS(=O)(=O)c2ccccc2)N=C(c2ccc(OCCCO)cc2)O[C@H]1c1ccccc1
[reply] 1.62

[ask] Requested read-out: z-score. Entry: O=C1[C@H]2[C@H]3[C@H](O)[C@H](O)CC(=NOCc4ccccc4)[C@@H]3CC[C@H]2C(=O)N1C1CCCCC1
[reply] -0.116
